The molecules below have reported IC50 for EGFR (UniProt P00533).

Smi	IC50 / µM
COc1cc(C=C(C#N)C#N)ccc1O	200
N#CC(C#N)=Cc1cccc(O)c1	375
N#C/C(=C\c1ccc(O)c(O)c1)C(N)=O	10
N#CC(C#N)=Cc1cc[n+]([O-])cc1	1300

Where do these numbers come from? They come from the Kinase Knowledgebase extract (Sharma et al. 2016).
